// data source = paper PMC4408108

Study System: nAChRs expressed in human iPSC-derived neurons (predominantly α7 nAChRs) (Homo sapiens)
Sequence (P36544 23-502): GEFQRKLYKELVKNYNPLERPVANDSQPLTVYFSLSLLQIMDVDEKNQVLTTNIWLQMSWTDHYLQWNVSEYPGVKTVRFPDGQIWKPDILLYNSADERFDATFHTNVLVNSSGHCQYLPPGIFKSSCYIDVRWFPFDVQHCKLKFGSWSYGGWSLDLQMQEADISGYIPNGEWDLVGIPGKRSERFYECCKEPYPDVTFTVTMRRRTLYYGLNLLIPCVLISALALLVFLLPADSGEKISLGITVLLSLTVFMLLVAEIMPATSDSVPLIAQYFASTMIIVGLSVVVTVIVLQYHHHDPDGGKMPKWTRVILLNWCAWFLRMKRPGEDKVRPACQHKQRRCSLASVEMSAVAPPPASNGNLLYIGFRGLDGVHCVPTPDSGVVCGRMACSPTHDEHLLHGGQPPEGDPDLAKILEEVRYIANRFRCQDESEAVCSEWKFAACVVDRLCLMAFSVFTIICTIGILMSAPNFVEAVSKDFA
Procedure Text: cell-based
Particulars: EC50
Readout Type: EC50 (µM)
Unit µM implied. Number only.

Q) EC50 of C[N+](C)(C)CCO [Choline, choline] on nAChRs expressed in human iPSC-derived neurons (predominantly α7 nAChRs) (Homo sapiens)?
A) 26.1

###

Study System: nAChRs expressed in human iPSC-derived neurons (predominantly α7 nAChRs) (Homo sapiens);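 also: Fluo-4 calcium imaging on a FLIPR in human iPSC-derived neurons 4–8 days after plating, peak minus baseline fluorescence expressed as percent of the 30 mM KCl depolarisation response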
Particulars: applied alone; FLIPR, room temperature
Readout Type: pEC50
// scale note: pEC50 = -log10(conc_M); give the bare number

Q) Look up pEC50: NS(=O)(=O)c1ccc2c(c1)C1C=CCC1C(c1ccc(Br)cc1)N2 (centres unmarked)
A) 5.37

Let us move to another entry and its pEC50.
Q) Would you kindly share the measured pEC50 for Clc1ccc(C2CC3CCC2N3)cn1 (centres unmarked) [Epibatidine, epibatidine] ?
A) 6.42
